# test target: mouse TAAR1 (Mus musculus, UniProt Q923Y8)
# Construct: expressed in transfected cells; host or cells: HEK293 (ATCC # CRL-1573), stably transfected with pIRESneo2 expression plasmid
# Sequence (Q923Y8 whole entry): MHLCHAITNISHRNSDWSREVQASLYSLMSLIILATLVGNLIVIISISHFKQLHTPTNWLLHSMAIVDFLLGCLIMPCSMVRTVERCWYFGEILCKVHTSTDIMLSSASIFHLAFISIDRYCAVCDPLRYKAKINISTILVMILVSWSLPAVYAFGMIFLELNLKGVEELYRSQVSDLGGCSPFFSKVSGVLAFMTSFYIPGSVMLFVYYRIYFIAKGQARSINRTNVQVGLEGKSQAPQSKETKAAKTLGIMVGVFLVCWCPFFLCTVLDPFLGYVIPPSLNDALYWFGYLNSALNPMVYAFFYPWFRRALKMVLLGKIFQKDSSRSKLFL
# assay summary: TAAR1 radioligand binding with [3H]-rac-2-(1,2,3,4-tetrahydro-1-naphthyl)-2-imidazoline, membranes of stably transfected HEK293 cells
# run conditions: first value of the cell, read-out: Ki (μM) mouse/rat: mouse
# Method: For the construction of expression plasmids the coding sequences of human, rat and mouse TAAR 1 were amplified from genomic DNA essentially as described by Lindemann et al.. […] Cells at confluence were rinsed with ice-cold phosphate buffered saline without Ca^2+ and Mg^2+ containing 10 mM EDTA and pelleted by centrifugation at 1000 rpm for 5 min at 4° C. […] Protein concentration was determined by the method of Pierce (Rockford, Ill.). […]
Strictly below 0.001 µM in Ki: true. Otherwise: false.

Completed entries (count: 2):
CCc1nc(OC)cc(C(=O)Nc2ccc(CC[C@H]3COC(N)=N3)cc2)n1    true
NC1=N[C@@H](CCc2ccc(NC(=O)c3cnc(N4CCC(F)(F)CC4)cn3)cc2)CO1    false

Q) Ki strictly < 0.001 µM for this molecule? `NC1=N[C@@H](CCc2ccc(NC(=O)c3nc(Cl)ccc3F)cc2)CO1`
A) false

Q) Ki strictly < 0.001 µM for this molecule? `CCc1cnc(C(=O)Nc2ccc(CC[C@@H]3N=C(N)O[C@H]3C)cc2)cn1`
A) false

Q) Ki strictly < 0.001 µM for this molecule? `NC1=N[C@@H](CCc2ccc(NC(=O)C3(c4ccc(Cl)cc4)CC3)cc2)CO1`
A) true

Q) Ki strictly < 0.001 µM for this molecule? `NC1=N[C@@H](CCc2ccc(NC(=O)c3cccc(Cl)c3)cc2)CO1`
A) true

Q) Ki strictly < 0.001 µM for this molecule? `C#Cc1ccc(NC(=O)c2ccc(CC[C@H]3COC(N)=N3)cc2)nc1`
A) false

Q) Ki strictly < 0.001 µM for this molecule? `CCc1ocnc1C(=O)Nc1ccc(CC[C@H]2COC(N)=N2)cc1`
A) false

Q) Ki strictly < 0.001 µM for this molecule? `NC1=N[C@@H](CCc2ccc(NC(=O)c3ccc(Cl)s3)cc2)CO1`
A) true

Q) Ki strictly < 0.001 µM for this molecule? `NC1=N[C@@H](CCc2ccc(NC(=O)c3ncoc3C3CC3)cc2)CO1`
A) false

Q) Ki strictly < 0.001 µM for this molecule? COC(C(=O)Nc1ccc(CC[C@H]2COC(N)=N2)cc1)c1ccc(Cl)cc1 (stereo partly shown)
A) false

Q) Ki strictly < 0.001 µM for this molecule? `NC1=N[C@@H](CCc2ccc(NC(=O)c3cc(Cl)nc(Cl)c3)cc2)CO1`
A) true

Q) Ki strictly < 0.001 µM for this molecule? `NC1=N[C@@H](CCc2ccc(NC(=O)Nc3cccc(Cl)c3)cc2)CO1`
A) true

Q) Ki strictly < 0.001 µM for this molecule? `NC1=N[C@@H](CCc2ccc(NC(=O)c3ccc(F)nc3F)cc2)CO1`
A) false

Q) Ki strictly < 0.001 µM for this molecule? `Cc1cc(C(=O)Nc2ccc(CC[C@H]3COC(N)=N3)cc2)ncc1Cl`
A) true

Q) Ki strictly < 0.001 µM for this molecule? `NC1=N[C@@H](CCc2ccc(NC(=O)c3cc(F)cnc3F)cc2)CO1`
A) false

Q) Ki strictly < 0.001 µM for this molecule? `COc1cc(C(=O)Nc2ccc(CC[C@H]3COC(N)=N3)cc2)nc(C(C)C)n1`
A) true

Measured values drawn from patent US8354441B2 for this set.
